experiment: Primary qHTS for inhibitors of nuclear receptor binding SET domain protein 2 (NSD2) in an RCH-ACV wild type WT cells (2C) (AID 1645877); details: RCH-ACV (leukaemia line) NSD2 WT (2C) viability, CellTiter-Glo, 72 h; series mostly up to 44.9 µM; also: nearly all actives have a fitted effect of over 70% in size; also: potency is read from the fitted curve at half-maximal effect
Inconclusive results are not listed. Calls of active or inactive are those of the source. Calls follow the shape of the dose curve; as a rule, active = well fitted inhibition curve with a large enough effect; inconclusive = small, poorly fitted or top-dose-only effect; inactive = no such curve, though single readings can be large or run the other way.
PROPERTY MEASURED: Potency

Some entries whose results are on file:
COMPOUND	RESULT
CCCCNc1ncc(C(=O)NCc2ccc(-n3ccnc3)cc2)c(NC2CCC(O)CC2)n1 (centres undefined)	4.59 µM (active)
O=C(NCCO)c1cccc(-c2cc(Nc3ccc(OC(F)(F)F)cc3)ncn2)c1	18.3 µM (active)
C[C@@H]1O[C@@H](O[C@H]2[C@H](OC(=O)[C@]34CCC(C)(C)C[C@H]3C3=CCC5[C@@]6(C)C[C@H](O)[C@H](O[C@@H]7O[C@H](C(=O)O)[C@@H](O)[C@H](O)[C@H]7O)[C@@](C)(CO)C6[C@H](O)C[C@@]5(C)[C@]3(C)C[C@H]4O)O[C@@H](CO)[C@@H]2O)[C@H](O)[C@H](O)[C@H]1O[C@@H]1OC[C@@H](O)[C@H](O[C@H]2OC[C@](O)(CO)[C@H]2O)[C@H]1O (some centres undefined)	0.122 µM (active)
C/C=C(/C=C(C)/C=C/C=C/C=C(\C)C(=O)C12OC1C(O)(CCO)NC2=O)C(=O)OC (centres undefined)	7.96 µM (active)
C=C1C(=O)OC2CC(C)=C(C(C)CCCOC(C)=O)C(OC(=O)CC(C)CC)C12 (centres undefined)	7.09 µM (active)
C/C(=C\CO[C@@H]1O[C@H](CO[C@H]2OC[C@](O)(CO)[C@H]2O)[C@@H](O)[C@H](O)[C@H]1O)C(C)(C)O	inactive
Cc1cc(C)nc(SCC(=O)Nc2ncc(Cc3cccc4ccccc34)s2)n1	inactive
C=C(C(=O)OC[C@H]1O[C@@H](OC(=O)/C=C/c2ccccc2)[C@H](O)[C@@H](O)[C@@H]1O)C(O)CO (some centres undefined)	5.63 µM (active)
C[C@]12CC[C@@H]3c4ccc(O)c(O)c4CC[C@H]3[C@@H]1CCC2=O	11.5 µM (active)
C[C@H](Oc1cc(-n2cnc3ccc(CN4CCN(C)CC4)cc32)sc1C(N)=O)c1ccccc1C(F)(F)F	1.29 µM (active)

Now consider the entry below.
Looking up CN(C)CC1CCn2c(c(C3=C(c4cn(C)c5ccccc45)C(=O)NC3=O)c3ccccc32)C1 (centres undefined) , I see its Potency listed as 5.15 µM (active)

====

system: KB-3-1; assay: Cytotoxic Profiling of Annotated Libraries Using Quantitative High-Throughput Screening (AID 1296008); conditions: Five cell lines viability, CellTiter-Glo ATP luminescence, 48-72 h; active compounds read low; also: % is scaled to controls: 0 for no effect and ±100 for the full control effect; nearly all actives have a fitted effect of over 60% in size
Inconclusive results are not listed.
PROPERTY MEASURED: max response (%)
Please state the figure in %; there is no need to write the unit.

Looking up O=C(NCCN1CCC(n2c(=O)[nH]c3ccccc32)CC1)c1cc2cc(F)ccc2[nH]1 , I see its max response listed as 1.32

Looking up CC(=O)OC/C(=C/C(=O)O)CC[C@@H]1C(C=O)=CC[C@@H]2C(C)(C)CCC[C@@]12C , I see its max response listed as 3.67

Just for reference, PubChem BioAssay (NCATS) is where these values come from.
